# target: CD80-Ig (extracellular domain of CD80 fused with the constant region of mouse IgG1 heavy chain) (mouse)
# protocol.description: SPR (BIACORE), direct binding to immobilized CD80-Ig, linear regression plot
measured.endpoint: Kd (nM)

> print(dat)
                                     binder  measured.endpoint  unit.symbol  value
1  Ac-KIEFMYPPPYLDNERSNGTI-NH2 [EL-CD28 (end-blocked L CD28 peptide mimetic)]                 Kd           nM   2340
